- TEST TARGET: Protein A domain D
- METHOD DESCRIPTION: BLI
- ASSAY SETUP: chain shown with the change;; parent: 35.3 nM
Provide the reported Kd of each item.
Answers are plain numbers, in nM.

The cases that follow already have their Kd on record.
sdAb n501 S79A (protein) EVQLVESGGGLVQPGGSLRLSCAASDFTFRNYEMSWVRQAPGKGLEWVSSISGSGGSTYYAHSLKGRFTIARDNSKNTLYLQMNSLRAEDTAIYYCARLRDGFNNGFDYWGQGTLVTVSS: 372
sdAb n501 S18A (protein) EVQLVESGGGLVQPGGALRLSCAASDFTFRNYEMSWVRQAPGKGLEWVSSISGSGGSTYYAHSLKGRFTISRDNSKNTLYLQMNSLRAEDTAIYYCARLRDGFNNGFDYWGQGTLVTVSS: 136
sdAb n501 T65A (protein) EVQLVESGGGLVQPGGSLRLSCAASDFTFRNYEMSWVRQAPGKGLEWVSSISGSGGSAYYAHSLKGRFTISRDNSKNTLYLQMNSLRAEDTAIYYCARLRDGFNNGFDYWGQGTLVTVSS: 1030
sdAb n501 K72A (protein) EVQLVESGGGLVQPGGSLRLSCAASDFTFRNYEMSWVRQAPGKGLEWVSSISGSGGSTYYAHSLAGRFTISRDNSKNTLYLQMNSLRAEDTAIYYCARLRDGFNNGFDYWGQGTLVTVSS: 1360
sdAb n501 G16A (protein) EVQLVESGGGLVQPAGSLRLSCAASDFTFRNYEMSWVRQAPGKGLEWVSSISGSGGSTYYAHSLKGRFTISRDNSKNTLYLQMNSLRAEDTAIYYCARLRDGFNNGFDYWGQGTLVTVSS: 96.3

Okay, next one:
Record sdAb n501 R95A (protein) EVQLVESGGGLVQPGGSLRLSCAASDFTFRNYEMSWVRQAPGKGLEWVSSISGSGGSTYYAHSLKGRFTISRDNSKNTLYLQMNSLAAEDTAIYYCARLRDGFNNGFDYWGQGTLVTVSS . Reported Kd: 431
